All figures here come from ChEMBL document CHEMBL1141609.

Target or test system: P2Y purinoceptor 2 (Mus musculus, UniProt P35383)
Sequence (P35383 whole entry): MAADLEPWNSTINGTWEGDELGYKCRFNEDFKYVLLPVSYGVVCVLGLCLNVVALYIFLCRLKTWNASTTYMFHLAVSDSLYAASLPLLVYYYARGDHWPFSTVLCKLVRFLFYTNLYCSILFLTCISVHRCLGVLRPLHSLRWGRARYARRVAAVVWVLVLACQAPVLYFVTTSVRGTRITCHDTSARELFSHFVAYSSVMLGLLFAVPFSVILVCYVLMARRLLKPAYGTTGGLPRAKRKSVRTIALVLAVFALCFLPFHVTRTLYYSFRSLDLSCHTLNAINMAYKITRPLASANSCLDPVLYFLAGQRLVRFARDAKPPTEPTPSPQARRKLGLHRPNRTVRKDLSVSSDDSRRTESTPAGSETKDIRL
Measurement notes: Antagonist activity at mouse P2Y2 receptor in mouse NG108-15 cells assessed as inhibition of UTP-induced calcium mobilization
Property: pIC50
pIC50 (log units): -log10 of the concentration in mol/L.

Examples with their reported pIC50 follow.
>>> measured_value("Cc1ccc(Nc2cc(S(=O)(=O)O)c(N)c3c2C(=O)c2ccccc2C3=O)c(C)c1")
5.05
>>> measured_value("CCOc1ccc(Nc2cc(S(=O)(=O)O)c(N)c3c2C(=O)c2ccccc2C3=O)cc1")
5.05
>>> measured_value("Cc1cccc(Nc2cc(S(=O)(=O)O)c(N)c3c2C(=O)c2ccccc2C3=O)c1")
4.66
>>> measured_value("COc1ccc(Nc2cc(S(=O)(=O)O)c(N)c3c2C(=O)c2ccccc2C3=O)cc1")
4.77
>>> measured_value("CCc1ccccc1Nc1cc(S(=O)(=O)O)c(N)c2c1C(=O)c1ccccc1C2=O")
4.62

Form field: reported pIC50 of Cc1ccccc1Nc1cc(S(=O)(=O)O)c(N)c2c1C(=O)c1ccccc1C2=O
5.00

Form field: reported pIC50 of CCOc1ccccc1Nc1cc(S(=O)(=O)O)c(N)c2c1C(=O)c1ccccc1C2=O
4.77

Form field: reported pIC50 of COc1ccccc1Nc1cc(S(=O)(=O)O)c(N)c2c1C(=O)c1ccccc1C2=O
5.05
